test: Observed steady-state PK of oral tramadol Q6h (threshold PK parameters); settings: human, plasma, po, 120 mg
Where a name gives a salt, the structure may show the parent alone.
Observation Type: AUC (ng·h/mL)
API: value field is a number in ng·h/mL; no unit string.

Incoming: Tell us which AUC value is on record for COc1cccc([C@]2(O)CCCC[C@H]2CN(C)C)c1 (racemic) [Tramadol, hydrochloride]
Outgoing: 3880

---

assay: Observed steady-state PK of oral tramadol Q6h (threshold PK parameters); details: human, plasma, po, 50 mg
Structures can show the parent of a compound that is named as a salt.
Observation Type: Cmax (ng/mL)
API: value field is a number in ng/mL; no unit string.

Incoming: Tell us which Cmax value is on record for COc1cccc([C@]2(O)CCCC[C@H]2CN(C)C)c1 (racemic) [Tramadol, hydrochloride]
Outgoing: 340
